Entries and their measured CPP32 k3/Ki follow.
# test.system: UniProt P42574
# measurement.notes: Dissociation constant Ki and irreversible rate constant k3 for irreversible inhibitors, CPP32
# Type: biochemical
# measurement.parameters: continuous assay 60 min, reaction initiated by adding enzyme

molecule | CPP32 k3/Ki
CC(C)[C@H](NC(=O)COc1cccc2ccccc12)C(=O)N[C@@H](CC(=O)O)C(=O)COc1c(F)ccc(F)c1F [Example 76] | 188,000 M^−1s^−1

Q. # get_value(readout='CPP32 k3/Ki', item= CC(C)[C@H](NC(=O)CCOc1cccc2ccccc12)C(=O)N[C@@H](CC(=O)O)C(=O)COc1cc(C(F)(F)F)n(-c2ccccc2)n1 [Example 159] )
A. 11,700 M^−1s^−1

Q. # get_value(readout='CPP32 k3/Ki', item= CC(C)[C@H](NC(=O)COc1cccc2ccccc12)C(=O)N[C@@H](CC(=O)O)C(=O)COc1ccc(F)cc1F [Example 69] )
A. 21,700 M^−1s^−1

Q. # get_value(readout='CPP32 k3/Ki', item= CC(C)[C@H](NC(=O)COc1cccc2ccccc12)C(=O)N[C@@H](CC(=O)O)C(=O)COc1ccc(F)c(F)c1 [Example 72] )
A. 6,460 M^−1s^−1

---

Entries and their measured CPP32 k3/Ki follow.
# test.system: CPP32 (Homo sapiens, UniProt P42574)
# Sequence (P42574 29-175 limits assumed, species assumed): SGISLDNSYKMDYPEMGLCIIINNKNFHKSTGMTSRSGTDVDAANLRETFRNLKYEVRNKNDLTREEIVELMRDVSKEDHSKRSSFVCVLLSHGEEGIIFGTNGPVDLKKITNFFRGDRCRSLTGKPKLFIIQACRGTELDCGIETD
# Sequence (P42574 176-277 limits assumed, species assumed): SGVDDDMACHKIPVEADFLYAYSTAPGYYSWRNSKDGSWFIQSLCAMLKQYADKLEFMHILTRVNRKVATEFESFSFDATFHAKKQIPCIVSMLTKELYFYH
# measurement.notes: Dissociation constant Ki and irreversible rate constant k3 for irreversible inhibitors, CPP32
# Assay type: biochemical
# measurement.parameters: continuous assay 60 min, reaction initiated by adding enzyme

Q. # get_value(readout='CPP32 k3/Ki', item= CCCCCCP(=O)(OCC(=O)[C@H](CC(=O)O)NC(=O)[C@@H](NC(=O)COc1cccc2ccccc12)C(C)C)c1ccc(F)cc1 (stereo partly shown) )
A. 48,300 M^−1s^−1

Q. # get_value(readout='CPP32 k3/Ki', item= `CC(C)[C@H](NC(=O)COc1ccc2ccccc2c1)C(=O)N[C@@H](CC(=O)O)C(=O)COc1c(F)cc(F)cc1F` )
A. 49,700 M^−1s^−1

Q. # get_value(readout='CPP32 k3/Ki', item= `CC(C)[C@H](NC(=O)COc1ccc2ccccc2c1)C(=O)N[C@@H](CC(=O)O)C(=O)COc1c(F)c(F)cc(F)c1F` )
A. 53,300 M^−1s^−1

Q. # get_value(readout='CPP32 k3/Ki', item= `CC(C)C[C@H](NC(=O)COc1ccccc1-c1ccccc1)C(=O)N[C@@H](CC(=O)O)C(=O)COC(=O)c1c(Cl)cccc1Cl` )
A. 246,000 M^−1s^−1

Q. # get_value(readout='CPP32 k3/Ki', item= `CC(C)[C@H](NC(=O)COc1cccc2ccccc12)C(=O)N[C@@H](CC(=O)O)C(=O)COc1c(F)c(F)c(F)c(F)c1F` )
A. 56,600 M^−1s^−1

Q. # get_value(readout='CPP32 k3/Ki', item= `CC(C)[C@H](NC(=O)COc1cccc2ccccc12)C(=O)N[C@@H](CC(=O)O)C(=O)COc1c(F)c(F)cc(F)c1F` )
A. 268,000 M^−1s^−1

Q. # get_value(readout='CPP32 k3/Ki', item= CC(C)[C@H](NC(=O)COc1ccc2ccccc2c1)C(=O)NC(CC(=O)O)C(=O)CF (mixture of isomers) )
A. 59,300 M^−1s^−1

Q. # get_value(readout='CPP32 k3/Ki', item= CC(C)C[C@H](NC(=O)COc1ccccc1-c1ccccc1)C(=O)NC(CC(=O)O)C(=O)CF (mixture of isomers) )
A. 177,000 M^−1s^−1

Q. # get_value(readout='CPP32 k3/Ki', item= CC(C)[C@H](NC(=O)COc1cccc2ccccc12)C(=O)N[C@@H](CC(=O)O)C(=O)COP(C)(=O)c1cccc2ccccc12 (stereo partly shown) )
A. 272,000 M^−1s^−1

Q. # get_value(readout='CPP32 k3/Ki', item= `CC(C)[C@H](NC(=O)COc1ccccc1-c1ccccc1)C(=O)N[C@@H](CC(=O)O)C(=O)COc1c(F)cc(F)cc1F` )
A. 257,000 M^−1s^−1

Q. # get_value(readout='CPP32 k3/Ki', item= CCCCCCP(=O)(OCC(=O)[C@H](CC(=O)O)NC(=O)[C@@H](NC(=O)COc1cccc2ccccc12)C(C)C)c1ccccc1 (stereo partly shown) )
A. 155,000 M^−1s^−1

Q. # get_value(readout='CPP32 k3/Ki', item= `CC(C)C[C@H](NC(=O)COc1c(C(=O)O)ccc2ccccc12)C(=O)N[C@@H](CC(=O)O)C(=O)COC(=O)c1c(Cl)cccc1Cl` )
A. 335,000 M^−1s^−1

Q. # get_value(readout='CPP32 k3/Ki', item= `CC(C)[C@H](NC(=O)CCOc1ccccc1)C(=O)N[C@@H](CC(=O)O)C(=O)COc1c(F)c(F)cc(F)c1F` )
A. 33,000 M^−1s^−1
